Tested on: HL-60
ASSAY_OVERVIEW: Compound was evaluated for inhibition of human HL-60 cell growth at 1 (uM) at 48 hr
Type: functional
ASSAY_READOUT: Inhibition (%)
Quick reminder: number only, in %, skip the unit.

Worked examples, 3 molecules total:
INSERT INTO assay_data (molecule, assay_readout, recorded_value) VALUES
  ('Cc1nc2nc(N)nc(N)c2c(C)c1CNc1ccc(C(=O)NC(CCC(=O)O)C(=O)O)cc1 (centres undefined)', 'Inhibition', 19.8),
  ('Cc1c(CNc2ccc(C(=O)NC(CCC(=O)O)C(=O)O)cc2)cnc2nc(N)nc(N)c12 (centres undefined)', 'Inhibition', 61.1),
  ('Cc1nc2nc(N)nc(N)c2cc1CNc1ccc(C(=O)NC(CCC(=O)O)C(=O)O)cc1 (centres undefined)', 'Inhibition', 32.5);

Let us move to another entry and its Inhibition.
Input line: Fill in: Inhibition of CN(Cc1cnc2nc(N)nc(N)c2n1)c1ccc(C(=O)N[C@@H](CCC(=O)O)C(=O)O)cc1 [METHOTREXATE] is ___
Output line: 64

====

TESTED_SYSTEM: Dihydrofolate reductase (Mus musculus)
Sequence (P00375 whole entry): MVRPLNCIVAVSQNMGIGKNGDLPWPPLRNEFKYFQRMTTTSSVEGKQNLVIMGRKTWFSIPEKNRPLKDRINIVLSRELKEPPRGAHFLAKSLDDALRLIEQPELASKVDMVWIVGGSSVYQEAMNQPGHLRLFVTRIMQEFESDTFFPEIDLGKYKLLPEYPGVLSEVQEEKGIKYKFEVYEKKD
ASSAY_READOUT: Ki (pM)
Quick reminder: number only, in pM, skip the unit.

Input line: Could you share what Ki was measured for Cc1nc2nc(N)nc(N)c2c(C)c1CNc1ccc(C(=O)NC(CCC(=O)O)C(=O)O)cc1 (stereo unspecified) , tested on Dihydrofolate reductase (Mus musculus)?
Output line: 2.01
